# assay.method.text: Single ascending-dose (SAD) study, plasma pharmacokinetics
# Type: in vivo, human
# experimental.conditions: both sexes, human, plasma, oral; SAD single dose 80 mg, N = 8, mean (SD); read-out: AUC0-∞
endpoint.label: AUC(0-inf)

GET /values?readout=AUC(0-inf)&item= Cc1nc(-c2cnc(N3CCN(CCCc4c[nH]c5ccc(C#N)cc45)CC3)nc2)sc1C(N)=O [HEC113995PA·H2O]
5870 ng·h/mL

* * *

# assay.method.text: Single ascending-dose (SAD) study, plasma pharmacokinetics
# Assay type: in vivo, human
# experimental.conditions: both sexes, human, plasma, oral; SAD single dose 20 mg, N = 8, mean (SD); read-out: t1/2 (converted)
endpoint.label: half-life (h)
Numbers only, in h.

GET /values?readout=half-life&item= Cc1nc(-c2cnc(N3CCN(CCCc4c[nH]c5ccc(C#N)cc45)CC3)nc2)sc1C(N)=O [HEC113995PA·H2O]
38.6

* * *

# assay.method.text: Acid-base ionization constants
# Assay type: physicochemical
# experimental.conditions: read-out: acid-base ionization constant pKa1
endpoint.label: pKa
Give bare numbers.

GET /values?readout=pKa&item= Cc1nc(-c2cnc(N3CCN(CCCc4c[nH]c5ccc(C#N)cc45)CC3)nc2)sc1C(N)=O [HEC113995PA·H2O]
6.46

* * *

# assay.method.text: Single ascending-dose (SAD) study, plasma pharmacokinetics
# Format: in vivo, human
# experimental.conditions: both sexes, human, plasma, oral; across single-dose groups 2.5–80 mg; read-out: mean residence time (MRT), range of arithmetic means
# Experimental: The study comprised a total of 7 dose groups (2.5, 5, 10, 20, 40, 60, and 80 mg groups, respectively). The first dose group (2.5 mg) consisted of 8 subjects, with 6 receiving HEC113995PA·H2O and 2 receiving placebo. […] Drug safety and tolerability were evaluated on day 2 and 4 in the first dose group and on day 4 and 7 in the second to seventh dose groups. […] The concentration of HEC113995PA·H2O in human plasma samples (K2EDTA) was quantitatively analyzed using the LC-MS/MS method. […]
endpoint.label: MRT

GET /values?readout=MRT&item= Cc1nc(-c2cnc(N3CCN(CCCc4c[nH]c5ccc(C#N)cc45)CC3)nc2)sc1C(N)=O [HEC113995PA·H2O]
35.3 to 44.8 h

* * *

# assay.method.text: Single ascending-dose (SAD) study, plasma pharmacokinetics
# Type: in vivo, human
# experimental.conditions: both sexes, human, plasma, oral; SAD single dose 10 mg, N = 8, mean (SD)
# Description: The study comprised a total of 7 dose groups (2.5, 5, 10, 20, 40, 60, and 80 mg groups, respectively). The first dose group (2.5 mg) consisted of 8 subjects, with 6 receiving HEC113995PA·H2O and 2 receiving placebo. […] Drug safety and tolerability were evaluated on day 2 and 4 in the first dose group and on day 4 and 7 in the second to seventh dose groups. […] The concentration of HEC113995PA·H2O in human plasma samples (K2EDTA) was quantitatively analyzed using the LC-MS/MS method. […]
endpoint.label: k el
# include the unit after the value

GET /values?readout=k el&item= Cc1nc(-c2cnc(N3CCN(CCCc4c[nH]c5ccc(C#N)cc45)CC3)nc2)sc1C(N)=O [HEC113995PA·H2O]
7.11e-06 s⁻¹

* * *

# assay.method.text: Multiple ascending-dose (MAD) study, plasma pharmacokinetics
# Format: in vivo, human
# experimental.conditions: both sexes, human, plasma, oral, 10 mg, MAD D10; 10 mg dose group; mean (SD); read-out: Vss/F
endpoint.label: Vd/F (L)
Answers are plain numbers, in L.

GET /values?readout=Vd/F&item= Cc1nc(-c2cnc(N3CCN(CCCc4c[nH]c5ccc(C#N)cc45)CC3)nc2)sc1C(N)=O [HEC113995PA·H2O]
521
